# Experimental details: Binding affinity to voltage-gated sodium channel in rat brain synaptosomal membranes
# Assay type: cell membranes
Measurement kind: pKd
Interpret pKd as the negative base-10 log of the concentration measured in mol/L.

Q. Item `CCCCC/N=c1\ccn(Cc2ccccc2)c2cc(Cl)ccc12` has what recorded pKd?
A. 8.66

* * *

# Test target: Sodium channel protein type 2 subunit alpha (Rattus norvegicus)
# Sequence (P04775 whole entry): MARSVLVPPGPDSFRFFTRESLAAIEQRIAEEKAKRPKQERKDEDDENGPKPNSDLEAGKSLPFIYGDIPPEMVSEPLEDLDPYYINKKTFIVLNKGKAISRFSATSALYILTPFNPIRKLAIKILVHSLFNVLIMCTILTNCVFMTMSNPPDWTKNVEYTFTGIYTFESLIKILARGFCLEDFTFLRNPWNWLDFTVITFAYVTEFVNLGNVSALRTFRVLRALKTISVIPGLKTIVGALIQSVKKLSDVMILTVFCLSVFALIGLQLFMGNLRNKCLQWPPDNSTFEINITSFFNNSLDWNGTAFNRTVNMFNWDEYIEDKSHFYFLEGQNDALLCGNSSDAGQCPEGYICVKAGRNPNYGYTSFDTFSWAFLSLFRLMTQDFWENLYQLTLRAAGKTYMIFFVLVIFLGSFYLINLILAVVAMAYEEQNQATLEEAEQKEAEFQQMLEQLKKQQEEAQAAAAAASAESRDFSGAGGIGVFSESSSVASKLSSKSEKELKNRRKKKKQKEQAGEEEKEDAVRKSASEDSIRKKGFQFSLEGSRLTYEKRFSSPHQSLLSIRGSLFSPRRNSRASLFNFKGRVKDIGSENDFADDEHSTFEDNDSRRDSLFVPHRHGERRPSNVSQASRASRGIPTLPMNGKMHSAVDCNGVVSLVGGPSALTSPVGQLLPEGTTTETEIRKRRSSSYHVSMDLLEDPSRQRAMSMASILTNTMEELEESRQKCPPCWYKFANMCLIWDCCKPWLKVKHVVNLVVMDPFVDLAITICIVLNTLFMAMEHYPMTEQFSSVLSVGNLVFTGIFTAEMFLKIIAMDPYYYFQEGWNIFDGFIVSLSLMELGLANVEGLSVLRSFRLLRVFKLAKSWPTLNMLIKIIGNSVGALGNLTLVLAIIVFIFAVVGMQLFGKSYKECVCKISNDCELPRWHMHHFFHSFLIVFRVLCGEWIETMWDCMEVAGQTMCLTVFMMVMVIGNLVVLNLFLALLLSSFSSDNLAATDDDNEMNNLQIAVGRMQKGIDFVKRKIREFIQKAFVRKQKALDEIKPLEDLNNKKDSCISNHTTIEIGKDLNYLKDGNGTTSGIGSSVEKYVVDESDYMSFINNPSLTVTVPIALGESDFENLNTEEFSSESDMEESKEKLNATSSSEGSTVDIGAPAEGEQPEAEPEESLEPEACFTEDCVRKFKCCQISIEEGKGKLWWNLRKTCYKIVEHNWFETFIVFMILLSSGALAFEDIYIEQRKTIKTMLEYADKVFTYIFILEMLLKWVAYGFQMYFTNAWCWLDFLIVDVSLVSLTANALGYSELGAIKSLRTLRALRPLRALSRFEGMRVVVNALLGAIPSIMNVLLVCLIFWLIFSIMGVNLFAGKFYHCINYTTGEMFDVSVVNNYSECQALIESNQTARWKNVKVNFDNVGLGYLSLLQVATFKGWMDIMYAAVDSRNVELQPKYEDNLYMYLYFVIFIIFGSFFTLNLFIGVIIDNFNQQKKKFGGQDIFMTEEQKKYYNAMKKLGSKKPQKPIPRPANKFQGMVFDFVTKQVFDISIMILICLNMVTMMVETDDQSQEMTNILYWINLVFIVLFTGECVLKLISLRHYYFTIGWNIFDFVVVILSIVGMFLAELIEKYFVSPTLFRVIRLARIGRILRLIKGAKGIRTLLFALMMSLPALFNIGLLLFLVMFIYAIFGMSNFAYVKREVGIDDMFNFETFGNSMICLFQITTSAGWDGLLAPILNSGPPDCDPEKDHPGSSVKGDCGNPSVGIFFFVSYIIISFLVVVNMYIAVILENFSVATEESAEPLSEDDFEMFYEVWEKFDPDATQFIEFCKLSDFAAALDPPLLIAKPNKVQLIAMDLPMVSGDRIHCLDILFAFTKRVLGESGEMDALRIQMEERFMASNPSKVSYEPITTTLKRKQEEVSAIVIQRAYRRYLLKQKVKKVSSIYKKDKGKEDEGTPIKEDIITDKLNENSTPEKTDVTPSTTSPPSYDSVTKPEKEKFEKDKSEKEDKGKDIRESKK
# Experimental details: Inhibition of rat brain voltage-gated sodium channel subunit alpha Nav1.2-mediated current expressed in CHO cells
# Assay type: cell-based
Measurement kind: pIC50
Interpret pIC50 as the negative base-10 log of the concentration measured in mol/L.

Q. Item `CCCCC/N=c1\ccn(Cc2ccccc2)c2cc(Cl)ccc12` has what recorded pIC50?
A. 8.05

Origin of measurements: ChEMBL document CHEMBL2417508
